target: SRPK3 (human); experiment: radiometric filter-binding kinase assay, Kinase HotSpot; conditions: compound 0.5 µM; ATP 10 µM

COMPOUND_SMILES | residual activity, %
COc1ccc2c(c1)c(C1=C(c3c[nH]c4ccccc34)C(=O)NC1=O)cn2CCCN(C)C | 89.5
O=C1NC(=O)c2c1c1c3ccccc3[nH]c1n1cncc21 | 75.7
CN(C)CCCn1cc(C2=C(c3c[nH]c4ccccc34)C(=O)NC2=O)c2ccccc21 | 86.9
CC(C)(C)c1cc(C=C(C#N)C#N)cc(Br)c1O | 79.4
COc1cc2ncnc(Nc3ccc(OCc4ccccc4)cc3)c2cc1OC | 92.8
c1ccc2c(-c3ccncc3)c[nH]c2c1 | 96
O=C1c2ccccc2-c2nc3nnnn3nc21 | 89.4
CN(C)S(=O)(=O)c1ccc2c(c1)/C(=C/c1cc3c([nH]1)CCCC3)C(=O)N2 | 67.2
O=C(c1cc2cc(O)ccc2[nH]1)c1cc2cc(O)ccc2[nH]1 | 99.4
CCCCc1c(-c2ccc(OC)cc2)[nH]c2nccnc12 | 97.9
COc1ccc2c(c1)/C(=C/c1cnc[nH]1)C(O)=N2 | 96.2
